Where do the numbers come from? From patent US11440906B2.

Tested on: A375 Sensitive cells
Protocol: Viability test, trypan blue exclusion, A375 Sensitive cells
Assay type: cell-based, human
Condition details: Homo sapiens, A-375; 10 μM, 24 h; viable cells as percentage of DMSO control; read-out: Viab A375 10 μM/ 24 h
Exercise: for every item that follows, state its recorded viability at 10 µM.
One number for each entry, in %.

Examples with answers:
>>> df
                            smiles_notation  assay_value
0    CCOc1cccc(C(=N)NC(=N)Nc2nc3ccccc3s2)c1         38.7
1    N=C(NC(=N)c1ccccn1)Nc1nc(-c2ccccc2)cs1          100
2  CC(=O)c1cccc(C(=N)NC(=N)Nc2nc3ccccc3s2)c1          3.2
3  Nc1nc(Nc2ccccc2SSc2ccccc2Nc2nc(N)nc(-c3cccs3)n2)nc(-c2cccs2)n1          7.5
4            Cc1csc(NC(=N)NC(=N)c2cccnc2)n1         50.5

Answer for every listed entry: what is its viability at 10 µM? The entries follow.
1. Nc1nc(Nc2ccccc2SSc2ccccc2Nc2nc(N)nc(-c3cccc(Br)c3)n2)nc(-c2cccc(Br)c2)n1
2. Cc1csc(NC(=N)NC(=N)c2ccccn2)n1

47.4
78.7

Answer for every listed entry: what is its viability at 10 µM? The entries follow.
1. Cc1nc(NC(=N)NC(=N)c2cccc(Cl)c2)sc1C
2. COc1cc(C(=N)NC(=N)Nc2nc3ccccc3s2)cc(OC)c1OC

1. 106
2. 17.4

---

Test system: A375 Sensitive cells
Protocol: Viability test, trypan blue exclusion, A375 Sensitive cells
Assay type: cell-based, human
Condition details: Homo sapiens, A-375; 5 μM, 48 h; viable cells as percentage of DMSO control; read-out: Viab A375 5 μM/ 48 h
Exercise: for every item that follows, state its recorded viability at 5 µM.
One number for each entry, in %.

Answer for every listed entry: what is its viability at 5 µM? The entries follow.
1. Cc1csc(NC(=N)NC(=N)c2ccccc2Cl)n1
2. COc1ccc(Nc2nc(N)nc(C(Cl)(Cl)Cl)n2)c(SSc2cc(OC)ccc2Nc2nc(N)nc(C(Cl)(Cl)Cl)n2)c1
3. Cc1nc(NC(=N)NC(=N)c2ccc(Cl)cc2)sc1C
4. Nc1nc(Nc2ccccc2SSc2ccccc2Nc2nc(N)nc(-c3ccccc3[N+](=O)[O-])n2)nc(-c2ccccc2[N+](=O)[O-])n1

117
24.9
52.3
74.3

---

System: A375 Sensitive cells
Protocol: Viability test, trypan blue exclusion, A375 Sensitive cells
Assay type: cell-based, human
Condition details: Homo sapiens, A-375; 10 μM, 24 h; viable cells as percentage of DMSO control; read-out: Viab A375 10 μM/ 24 h
Experimental: […] For trypan blue staining, […] of cells (melanoma and normal human cells) were aseptically transferred to a 1.5 mL clear Eppendorf tube and incubated for 3 min at room temperature with an equal volume of 0.4% trypan blue solution. Viable cells were counted and the results are expressed as the percentage of the value of control cells. […]
Readout label: viability at 10 µM (%)
Answers are plain numbers, in %.

Examples with answers:
>>> print(df.to_string())
                                   molecule  unit_text  assay_value
0  N=C(NC(=N)c1ccccc1Br)Nc1nc2ccccc2s1 [MTF 250]          %           12
1  N#Cc1cccc(C(=N)NC(=N)Nc2nc3ccccc3s2)c1 [MTF 347]          %         27.6

Answer for every listed entry: what is its viability at 10 µM? The entries follow.
1. Nc1cccc(-c2nc(N)nc(Nc3ccccc3SSc3ccccc3Nc3nc(N)nc(-c4cccc(N)c4)n3)n2)c1 [MTF 460]
2. N=C(NC(=N)c1cccnc1)Nc1nc(-c2cccc([N+](=O)[O-])c2)cs1 [MTF 260]
3. Nc1nc(Nc2ccccc2O)nc(-c2cccc(Cl)c2)n1 [MTF 332]
4. N=C(NC(=N)c1ccncc1)Nc1nc2ccccc2s1 [MTF 253]
5. N=C(NC(=N)c1ccccn1)Nc1nc2ccccc2s1 [MTF 251]
6. Cc1csc(NC(=N)NC(=N)c2ccncc2)n1 [MTF 291]
7. CC1(C)C=Cc2cc(C(=N)NC(=N)Nc3nc4ccccc4s3)ccc2O1 [MTF 388]
8. N=C(NC(=N)c1ccc2c(c1)OCO2)Nc1nc2ccccc2s1 [MTF 383]

64.5
76.7
104
14.9
45.1
100
55.7
41.6

Answer for every listed entry: what is its viability at 10 µM? The entries follow.
1. COc1cccc(C(=N)NC(=N)Nc2nc3ccccc3s2)c1 [MTF 342]
2. Cc1nc(NC(=N)NC(=N)c2cccnc2)sc1C [MTF 298]
3. Nc1nc(Nc2ccccc2SSc2ccccc2Nc2nc(N)nc(-c3cnccn3)n2)nc(-c2cnccn2)n1 [MTF 348]
4. Cc1nc(NC(=N)NC(=N)c2ccccn2)sc1C [MTF 297]
5. N=C(NC(=N)C(Cl)(Cl)Cl)Nc1nc2ccccc2s1 [MTF 305]
6. Nc1nc(Nc2ccccc2SSc2ccccc2Nc2nc(N)nc(-c3ccc(C(F)(F)F)cc3)n2)nc(-c2ccc(C(F)(F)F)cc2)n1 [MTF 394]
7. Cc1nc(NC(=N)NC(=N)c2ccccc2)sc1C [MTF 303]
8. Cc1csc(NC(=N)NC(=N)c2ccccc2)n1 [MTF 283]

1: 32.2; 2: 87.5; 3: 110; 4: 97.9; 5: 5.5; 6: 4.5; 7: 66.1; 8: 100

Answer for every listed entry: what is its viability at 10 µM? The entries follow.
1. CC(=O)c1cccc(-c2nc(N)nc(Nc3ccccc3SSc3ccccc3Nc3nc(N)nc(-c4cccc(C(C)=O)c4)n3)n2)c1 [MTF 462]
2. Nc1nc(Nc2ccccc2SSc2ccccc2Nc2nc(N)nc(-c3ccccn3)n2)nc(-c2ccccn2)n1 [MTF 321]
3. N=C(NC(=N)c1ccc(I)cc1)Nc1nc2ccccc2s1 [MTF 247]
4. N=C(NC(=N)c1ccccn1)Nc1nc(-c2cccc([N+](=O)[O-])c2)cs1 [MTF 259]
5. Nc1nc(Nc2ccccc2SSc2ccccc2Nc2nc(N)nc(-c3cccc(Cl)c3)n2)nc(-c2cccc(Cl)c2)n1 [MTF 322]
6. N=C(NC(=N)c1cccc(Cl)c1)Nc1nc(-c2ccccc2)cs1 [MTF 267]

4.8
53.8
122
98
26.9
134

---

Exercise: for every item that follows, state its recorded viability at 10 µM.
Tested on: A375 Sensitive cells
Protocol: Viability test, trypan blue exclusion, A375 Sensitive cells
Assay type: cell-based, human
Condition details: Homo sapiens, A-375; 10 μM, 24 h; viable cells as percentage of DMSO control; read-out: Viab A375 10 μM/ 24 h
Answers are plain numbers, in %.

>>> df
                            smiles_notation       readout_label  assay_value
0          Cc1csc(NC(=N)NC(=N)c2ccccc2Br)n1  viability at 10 µM         53.7
1  Nc1nc(Nc2ccccc2SSc2ccccc2Nc2nc(N)nc(-c3ccc4ccccc4c3)n2)nc(-c2ccc3ccccc3c2)n1  viability at 10 µM         13.8

Answer for every listed entry: what is its viability at 10 µM? The entries follow.
1. Nc1nc(Nc2ccccc2SSc2ccccc2Nc2nc(N)nc(-c3cccc([N+](=O)[O-])c3)n2)nc(-c2cccc([N+](=O)[O-])c2)n1
2. Nc1nc(Nc2ccc([N+](=O)[O-])cc2O)nc(C(Cl)(Cl)Cl)n1
3. N=C(NC(=N)c1ccc(C(F)(F)F)cc1)Nc1nc2ccccc2s1
4. COc1cccc(-c2nc(N)nc(Nc3ccccc3SSc3ccccc3Nc3nc(N)nc(-c4cccc(OC)c4)n3)n2)c1
5. Cc1csc(NC(=N)NC(=N)c2ccc(Cl)cc2)n1

1: 72.4; 2: 24.3; 3: 86.6; 4: 20.5; 5: 65.3

The measured viability at 10 µM associated with "Cc1csc(NC(=N)NC(=N)c2ccccc2Cl)n1" reads 104

---

Test system: A375 Sensitive cells
Protocol: Viability test, trypan blue exclusion, A375 Sensitive cells
Type: cell-based, human
Condition details: Homo sapiens, A-375; 10 μM, 24 h; viable cells as percentage of DMSO control; read-out: Viab A375 10 μM/ 24 h
Readout label: viability at 10 µM (%)
Numbers only, in %.

Examples with answers:
In [3]: df
Out[3]:
                            smiles_notation         target_system       readout_label  assay_value
0        N=C(NC(=N)c1cscc1Br)Nc1nc2ccccc2s1  A375 Sensitive cells  viability at 10 µM         67.8
1  N=C(NC(=N)c1cccc(Br)c1)Nc1nc(-c2ccccc2)cs1  A375 Sensitive cells  viability at 10 µM           66
2  Nc1nc(Nc2ccc(F)cc2SSc2cc(F)ccc2Nc2nc(N)nc(C(Cl)(Cl)Cl)n2)nc(C(Cl)(Cl)Cl)n1  A375 Sensitive cells  viability at 10 µM          9.6

The measured viability at 10 µM associated with "Nc1nc(Nc2ccccc2SSc2ccccc2Nc2nc(N)nc(-c3cscc3Br)n2)nc(-c2cscc2Br)n1" reads 13.4
